Overview of reported IC50 across a group of compounds:
# assay_system: Integrin alpha-V/beta-5 (Homo sapiens, UniProt P06756+P18084)
# Sequence (P06756 31-889 limits assumed): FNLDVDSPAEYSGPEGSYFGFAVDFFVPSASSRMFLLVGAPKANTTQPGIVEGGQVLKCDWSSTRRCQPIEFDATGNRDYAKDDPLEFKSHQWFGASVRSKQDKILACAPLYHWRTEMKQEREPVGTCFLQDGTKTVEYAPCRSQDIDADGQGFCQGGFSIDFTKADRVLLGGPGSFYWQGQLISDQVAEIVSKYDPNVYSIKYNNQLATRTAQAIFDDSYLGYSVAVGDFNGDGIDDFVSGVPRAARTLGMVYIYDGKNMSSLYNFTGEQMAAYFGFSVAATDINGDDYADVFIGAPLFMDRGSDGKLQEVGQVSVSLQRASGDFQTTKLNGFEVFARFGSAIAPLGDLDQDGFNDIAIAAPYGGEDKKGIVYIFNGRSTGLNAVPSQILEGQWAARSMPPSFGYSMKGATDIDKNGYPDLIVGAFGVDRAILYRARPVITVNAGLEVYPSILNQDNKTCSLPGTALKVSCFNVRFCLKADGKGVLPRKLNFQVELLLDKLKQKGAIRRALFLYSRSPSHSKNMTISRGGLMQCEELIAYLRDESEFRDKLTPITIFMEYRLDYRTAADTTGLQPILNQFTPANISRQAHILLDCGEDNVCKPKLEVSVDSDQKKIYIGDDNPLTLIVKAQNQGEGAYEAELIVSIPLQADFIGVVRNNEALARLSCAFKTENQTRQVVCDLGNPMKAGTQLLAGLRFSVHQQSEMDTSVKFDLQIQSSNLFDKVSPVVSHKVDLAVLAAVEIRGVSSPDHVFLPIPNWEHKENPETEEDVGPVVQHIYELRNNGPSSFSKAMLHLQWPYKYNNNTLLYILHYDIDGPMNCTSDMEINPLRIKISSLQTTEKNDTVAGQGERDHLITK
# Sequence (P06756 891-1048 limits assumed): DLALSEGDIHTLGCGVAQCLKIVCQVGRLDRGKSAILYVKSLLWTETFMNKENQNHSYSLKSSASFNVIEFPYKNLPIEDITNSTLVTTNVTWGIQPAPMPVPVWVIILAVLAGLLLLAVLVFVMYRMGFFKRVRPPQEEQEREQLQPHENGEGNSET
# Sequence (P18084 24-799 limits assumed): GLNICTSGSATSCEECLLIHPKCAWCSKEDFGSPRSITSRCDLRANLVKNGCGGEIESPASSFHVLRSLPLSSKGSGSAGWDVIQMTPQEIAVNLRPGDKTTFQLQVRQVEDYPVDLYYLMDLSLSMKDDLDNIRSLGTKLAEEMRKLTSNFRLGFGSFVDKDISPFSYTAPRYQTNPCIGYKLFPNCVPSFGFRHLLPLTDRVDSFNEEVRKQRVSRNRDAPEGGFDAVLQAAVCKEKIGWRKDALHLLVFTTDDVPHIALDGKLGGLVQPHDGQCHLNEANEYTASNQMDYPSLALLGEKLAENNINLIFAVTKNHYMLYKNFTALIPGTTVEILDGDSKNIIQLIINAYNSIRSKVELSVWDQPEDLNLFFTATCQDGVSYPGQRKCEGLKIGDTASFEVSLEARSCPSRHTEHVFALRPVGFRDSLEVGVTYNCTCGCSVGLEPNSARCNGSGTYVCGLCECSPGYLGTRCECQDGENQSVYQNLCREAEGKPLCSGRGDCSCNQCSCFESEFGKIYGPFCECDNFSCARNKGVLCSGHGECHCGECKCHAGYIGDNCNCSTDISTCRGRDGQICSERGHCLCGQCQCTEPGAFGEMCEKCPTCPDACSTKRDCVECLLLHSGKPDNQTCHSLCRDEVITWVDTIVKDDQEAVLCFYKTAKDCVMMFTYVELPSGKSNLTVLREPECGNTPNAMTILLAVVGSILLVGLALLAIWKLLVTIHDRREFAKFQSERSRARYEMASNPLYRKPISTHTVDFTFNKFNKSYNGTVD
# protocol_notes: Binding affinity against integrin alpha V-beta5 in enzyme linked immunosorbent assay (ELISA)
Where a SMILES comes first, the peptide text is derived from it. Bridges are numbered along the chain shown (N, C = ends).
measured_quantity: IC50

- compound: "CCCCOc1ccc(C[C@@H]2NC(=O)[C@H](CC(=O)O)NC(=O)CNC(=O)[C@H](CCCNC(=N)N)NC(=O)[C@@H]3CCCN3C(=O)[C@H]([C@@H](C)CC)NC(=O)[C@@H](NC(C)=O)CSSC[C@@H](C(N)=O)NC(=O)[C@H](CCCNC(=N)N)NC2=O)cc1"
  assay_system: "Integrin alpha-V/beta-5 (Homo sapiens, UniProt P06756+P18084)"
  measured_quantity: "IC50"
  value: "> 10 µM"
- compound: "CC[C@H](C)[C@@H]1NC(=O)[C@@H](NC(C)=O)CSSC[C@@H](C(N)=O)NC(=O)[C@H](CCCNC(=N)N)NC(=O)[C@H](Cc2ccc(O)cc2)NC(=O)[C@H](CC(=O)O)NC(=O)CNC(=O)[C@H](CCCNC(=N)N)NC(=O)[C@@H]2CCCN2C1=O (Ac-CIPRGDYRC-NH2; disulfide 1-9)"
  assay_system: "Integrin alpha-V/beta-5 (Homo sapiens, UniProt P06756+P18084)"
  measured_quantity: "IC50"
  value: "> 10 µM"
- compound: "COc1ccc(C[C@@H]2NC(=O)[C@H](CC(=O)O)NC(=O)CNC(=O)[C@H](CCCNC(=N)N)NC(=O)[C@@H](Cc3ccc(O)cc3)NC(=O)CNC(=O)[C@@H](NC(=O)[C@@H](N)CCCNC(=N)N)C3(CCCCC3)SSC[C@@H](C(=O)N[C@@H](CCCNC(=N)N)C(=O)O)NC(=O)[C@H](CCCNC(=N)N)NC2=O)cc1"
  assay_system: "Integrin alpha-V/beta-5 (Homo sapiens, UniProt P06756+P18084)"
  measured_quantity: "IC50"
  value: "10 µM"
- compound: "COc1ccc(C[C@@H]2NC(=O)[C@H](CC(=O)O)NC(=O)CNC(=O)[C@H](CCCNC(=N)N)NC(=O)[C@H](Cc3ccc(O)cc3)NC(=O)CNC(=O)[C@@H](NC(=O)[C@@H](N)CCCNC(=N)N)C3(CCCCC3)SSC[C@@H](C(=O)N[C@@H](CCCNC(=N)N)C(=O)O)NC(=O)[C@H](CCCNC(=N)N)NC2=O)cc1"
  assay_system: "Integrin alpha-V/beta-5 (Homo sapiens, UniProt P06756+P18084)"
  measured_quantity: "IC50"
  value: "8.8 µM"
- compound: "N=C(N)NCCC[C@H](NC(=O)[C@@H]1CSSC2(CCCCC2)[C@H](NC(=O)[C@@H](N)CCCNC(=N)N)C(=O)NCC(=O)N[C@@H](Cc2c[nH]cn2)C(=O)N[C@@H](CCCNC(=N)N)C(=O)NCC(=O)N[C@@H](CC(=O)O)C(=O)N[C@@H](Cc2ccc(Cl)cc2)C(=O)N[C@@H](CCCNC(=N)N)C(=O)N1)C(=O)O"
  assay_system: "Integrin alpha-V/beta-5 (Homo sapiens, UniProt P06756+P18084)"
  measured_quantity: "IC50"
  value: "15.3 µM"
- compound: "CC(C)C[C@@H]1NC(=O)[C@H](CC(=O)O)NC(=O)CNC(=O)[C@H](CCCNC(=N)N)NC(=O)[C@H](Cc2c[nH]cn2)NC(=O)CNC(=O)[C@@H](NC(=O)[C@@H](N)CCCNC(=N)N)C2(CCCCC2)SSC[C@@H](C(=O)N[C@@H](CCCNC(=N)N)C(=O)O)NC(=O)[C@H](CCCNC(=N)N)NC1=O"
  assay_system: "Integrin alpha-V/beta-5 (Homo sapiens, UniProt P06756+P18084)"
  measured_quantity: "IC50"
  value: "1.58 µM"
